testedOn: T1, sIL-6R (soluble IL-6 receptor; SBH Sciences) (human, UniProt P08887 20-365)
T1 construct: also called human IL-6R
T1 sequence: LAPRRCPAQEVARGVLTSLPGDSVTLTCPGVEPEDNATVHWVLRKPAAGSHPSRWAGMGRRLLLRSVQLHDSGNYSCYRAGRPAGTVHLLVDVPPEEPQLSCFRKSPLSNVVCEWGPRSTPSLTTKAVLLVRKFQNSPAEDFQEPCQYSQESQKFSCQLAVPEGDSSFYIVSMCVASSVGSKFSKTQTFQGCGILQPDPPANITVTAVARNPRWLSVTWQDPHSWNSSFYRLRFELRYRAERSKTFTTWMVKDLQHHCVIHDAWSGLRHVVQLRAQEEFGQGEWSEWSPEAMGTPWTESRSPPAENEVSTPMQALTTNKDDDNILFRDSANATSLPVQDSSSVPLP
test: SPR (BIAcore 3000), antibody on chip, sIL-6R analyte, 25 C
Protocol: All SPR measurements were performed on a BIAcore 3000 instrument (GE Biosciences, Piscataway, N.J.). BIAcore Software-BIAcore 3000 Control Software V3.2 was used for the operation and control of the BIAcore 3000 instrument. […] Data was analyzed by using the Kinetics Wizard and the manual fitting programs that are both included with the BiaEvaluation Software V4.1.
Each entry below carries its recorded kon.
Write down the numeric answer in M⁻¹ s⁻¹ and omit the unit.

249# (antibody, human IgG1, kappa, V domains shown) VH: QVQLQESGPGLVRPSQTLSLTCTVSGYSITSDHAWSWVRQPPGRGLEWIGYISYSGMTTYNPSLKSRVTMLRDTSKNQFSLRLSSVTAADTAVYYCARCLARATAMDYWGQGSLVTVSS VL: DIQMTQSPSSLSASVGDRVTITCRASQDISSYLNWYQQKPGKAPKLLIYYTSRLHSGVPSRFSGSGSGTDFTFTISSLQPEDIATYYCGQGNRLPYTFGQGTKVEIKR : 141000
206# (antibody, human IgG1, kappa, V domains shown, also called Sample # 206) VH: QVQLQESGPGLVRPSQTLSLTCTVSGYSITSDHAWSWVRQPPGRGLEWIGFISYSGMTTYNPSLKSRVTMLRDTSKNQFSLRLSSVTAADTAVYYCARSLARITAMDYWGQGSLVTVSS VL: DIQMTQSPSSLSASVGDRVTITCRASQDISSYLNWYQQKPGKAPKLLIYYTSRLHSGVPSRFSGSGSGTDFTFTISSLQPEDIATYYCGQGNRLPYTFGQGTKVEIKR : 230000

Let us examine a further case.
So for 247# (antibody, human IgG1, kappa, V domains shown, also called Sample # 247) VH: QVQLQESGPGLVRPSQTLSLTCTVSGYSITSDHAWSWVRQPPGRGLEWIGYISYSGMTTYNPSLKSRVTMLRDTSKNQFSLRLSSVTAADTAVYYCARCLARMTAMDYWGQGSLVTVSS VL: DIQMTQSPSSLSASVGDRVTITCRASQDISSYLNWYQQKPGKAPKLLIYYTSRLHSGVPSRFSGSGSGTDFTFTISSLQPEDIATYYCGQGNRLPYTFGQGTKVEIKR , the logged kon turned out to be 167000
